biological target: HIV reverse transcriptase (Human immunodeficiency virus type 1 group M subtype B, UniProt P04585); construct: purchased HT-Biotechnology LTD, Cambridge, UK; host or cells: E. coli; assay: Inhibition of HIV reverse transcriptase, scintillation proximity assay (SPA); assay type: biochemical; details: RT-SPA, 60 min, 37° C.; read-out: Reverse Transcriptase Asaay IC-50 (converted)
IC50 reference
Value expressed in nM; do not type the unit.

// known answers, use as guide
[[record]]
molecule = "CCCC=C1c2cc(Cl)ccc2NC(=O)C1(C)C [Compound 2]"
valuetype = "IC50"
unitlabel = "nM"
measuredresult = 64.5

[[record]]
molecule = "CCC1(CC)C(=O)Nc2ccccc2C1=CCC(C)C [Compound 52]"
valuetype = "IC50"
unitlabel = "nM"
measuredresult = 44.2

[[record]]
molecule = "CCC1(CC)C(=S)Nc2ccccc2C1=CCC(C)C [Compound 53]"
valuetype = "IC50"
unitlabel = "nM"
measuredresult = 45.2

[[record]]
molecule = "CC(C)CC=C1c2cc(Cl)ccc2NC(=S)C1(C)C [Compound 20]"
valuetype = "IC50"
unitlabel = "nM"
measuredresult = 21.4


Pending molecule:
Prompt: Name the reported IC50 value associated with the molecule CCCC=C1c2ccccc2NC(=O)C1(CC)CC [Compound 48]
Response: 54.4

* * *

target: HIV reverse transcriptase (Human immunodeficiency virus type 1 group M subtype B, UniProt P04585); construct: purchased HT-Biotechnology LTD, Cambridge, UK; host or cells: E. coli; assay: Inhibition of HIV reverse transcriptase, scintillation proximity assay (SPA); assay type: biochemical; settings: RT-SPA, 60 min, 37° C.; read-out: Reverse Transcriptase Asaay IC-50 (converted)
Mark 1 only for IC50 values smaller than 20 nM; exact matches and larger values are -1.

Previously resolved entries follow.
[[record]]
compoundstring = "CC(C)CC=C1c2cc(Cl)ccc2NC(=O)C1(C)C"
group = -1

[[record]]
compoundstring = "CCCC=C1c2cc(OCC)ccc2NC(=S)C1(C)C"
group = -1


Prompt: Could you please tell me whether IC50 recorded for COc1ccc2c(c1)C(=C1CCCC1)C(C)(C)C(=S)N2 is less than 20 nM?
Response: 1

Prompt: Could you please tell me whether IC50 recorded for CCCC=C1c2cc(Cl)ccc2NC(=NO)C1(C)C is less than 20 nM?
Response: 1

Prompt: Could you please tell me whether IC50 recorded for CCC/C=C1\c2cc(Cl)ccc2NC(=O)C1(C)C is less than 20 nM?
Response: -1

* * *

system: HIV; assay: Testing preparations against HIV in cell culture (infected human donor lymphocytes); format: cell-based; details: Human immunodeficiency virus 1, 72 h; lowest concentration without giant cells; HIV-infected lymphocytes, 3 days, 37° C.
Mark YES only for MIC values smaller than 0.02 µg/mL; exact matches and larger values are NO.

Prompt: Could you please tell me whether MIC recorded for CC/C=C1\c2cc(Cl)ccc2NC(=S)C1(C)C is less than 0.02 µg/mL?
Response: YES

* * *

tested on: HIV; assay: Testing preparations against HIV in cell culture (infected human donor lymphocytes); format: cell-based; conditions: Human immunodeficiency virus 1, 72 h; lowest concentration without giant cells; HIV-infected lymphocytes, 3 days, 37° C.
valueType: MIC

[[record]]
compoundstring = "C=CC=C1c2ccccc2NC(=S)C1(C)C"
measuredresult = "< 0.2 µg/mL"

[[record]]
compoundstring = "CCCC=C1c2ccccc2NC(=S)C12CCC2"
measuredresult = "< 0.008 µg/mL"

[[record]]
compoundstring = "COc1ccc2c(c1)C(=CCC(C)C)C(C)(C)C(=O)N2"
measuredresult = "< 0.1 µg/mL"


Prompt: Name the reported MIC value associated with the compound CCCCCC=C1c2cc(Cl)ccc2NC(=S)C1(C)C
Response: < 0.2 µg/mL

Prompt: Name the reported MIC value associated with the compound CCCC=C1c2cc(OC(F)(F)F)ccc2NC(=S)C1(C)C
Response: < 0.2 µg/mL
